Tested on: Plasmodium falciparum
Assay: Screen against P. falciparum Asexual Blood Stage (ABS), at 5uM
Format: functional, Dd2
Settings: tested at 5 uM
In all, about 65,000 compounds went through this assay and about 2,100 (3.2%) showed an effect of 50% or more. The median lay at about -52%. The sample as a whole holds a higher share of strong results than the screen did.

compound: COCCCNC(=O)Cc1nc(-c2ccncc2)n[nH]1
INHIBITION (%): -95.8
--
compound: Cc1ccc(-n2ncc(C(=O)NC3CCCCC3)c2N)cc1
INHIBITION (%): -125
--
compound: COC1CCN(CCNC(=O)NC(C)c2ccc(F)c(F)c2)CC1 (stereo not drawn)
INHIBITION (%): 45.9
--
compound: CCOCc1nc(-c2ccc(F)cc2Cl)n(C)n1
INHIBITION (%): -121
--
compound: CCC(Nc1nc(C)nc2onc(C)c12)c1nc(C)c(C)s1 (stereo not drawn)
INHIBITION (%): -38.1
--
compound: O=C(c1cccc(Cn2ccnc2)c1)N1CCCC(n2ccnc2)C1 (stereo not drawn)
INHIBITION (%): -59.1
--
compound: Cc1cc(CN(C)Cc2csc(-c3cccs3)n2)n[nH]1
INHIBITION (%): -130
--
compound: CN(Cc1noc(C(C)(C)C)n1)Cc1ccccc1N1CCCC1
INHIBITION (%): 16.2
--
compound: CC(C)OCCCNC(=O)CN(c1ccc(F)c(F)c1)S(C)(=O)=O
INHIBITION (%): -105
--
compound: COC1CCN(CCNC(=O)NCC(C)c2cccc(C)c2)CC1 (stereo not drawn)
INHIBITION (%): 54.5
--
compound: Cc1cc(C)nc(N2CCCC(c3nccn3CCCN(C)C)C2)c1 (stereo not drawn)
INHIBITION (%): 51.7
--
compound: COc1cc(OC)nc(N2CCCC(c3nccn3CCN(C)C)C2)n1 (stereo not drawn)
INHIBITION (%): -23.1
--
compound: Cc1cccc(CN2CCc3nnc(Cn4cccc4)n3CC2)n1
INHIBITION (%): 57.5
--
compound: CC(C)Oc1ccccc1OCCN1C(=O)CCNC1=O
INHIBITION (%): -16.4
--
compound: CCOc1ccc(N2CCCN=C2NC(=O)c2ccc(Cl)cc2)cc1
INHIBITION (%): -71.7
--
compound: COc1ccccc1OC1CN(C(=O)C(c2ccc(F)cc2)N(C)C)C1 (stereo not drawn)
INHIBITION (%): 3.3
--
compound: O=C(Cn1ccc(-c2ccccc2)n1)N1CCN(C(=O)C2CC2)CC1
INHIBITION (%): -54.1
--
compound: O=C(NCC(F)F)c1ccc(S(=O)(=O)NCCc2ccncc2)cc1
INHIBITION (%): 16.5
--
compound: Cc1cc(CN(C)Cc2ccccc2N2CCCCC2)n[nH]1
INHIBITION (%): 67.5
--
compound: O=C(NC1=NCCCN1c1ccc(Cl)cc1)c1cccc(Cl)c1
INHIBITION (%): -55.5
--
compound: CC(C)c1nc(CN2CCCCC2)cs1
INHIBITION (%): -114
--
compound: O=C1CC2(CCCCN2C(=O)Cc2ccccc2)CN1c1cccnc1 (stereo not drawn)
INHIBITION (%): -37.3
--
compound: CN(C)CC(=O)N1C[C@@H]2CC[C@H](Oc3ccccc3)[C@@H]2C1
INHIBITION (%): 61.8
--
compound: c1ccc(C2=NOC3(CCN(Cc4c[nH]c5ccccc45)CC3)C2)cc1
INHIBITION (%): 36.1
--
compound: CCOc1nc2cnccc2n(CC(=O)NCc2ccc(C)cc2)c1=O
INHIBITION (%): -10.3
--
compound: CN(C)CC1(O)CCN(C(=O)Cc2ccc3c(c2)CCC3)C1 (stereo not drawn)
INHIBITION (%): -116
--
compound: N#Cc1ccc(F)c(CNC(=O)NC(CO)Cc2ccccc2)c1 (stereo not drawn)
INHIBITION (%): -90.6
--
compound: Cc1cnn(C2CCCN(C(=O)c3cccc(Cn4ccnc4)c3)C2)c1 (stereo not drawn)
INHIBITION (%): -112
--
compound: Cc1cc(NC(=O)c2ccc(CN3CC[C@H](O)C3)cc2)ccc1F
INHIBITION (%): 21.2
--
compound: CCc1c(C)nc2ccccc2c1N1CCC(O)CC1
INHIBITION (%): 0.854
--
compound: CNC(=O)C1CCN(CC(=O)Nc2cc(C(C)C)no2)CC1
INHIBITION (%): -141
--
compound: COc1ccc(-c2csc3c2c(N)nc(=O)n3CCCN(C)C)cc1
INHIBITION (%): 54.2
--
compound: O=C(C1CCOC1)N1CC2(CCN(c3ccccc3)C2)C1 (stereo not drawn)
INHIBITION (%): -3.52

Reference source for all entries: ChEMBL document CHEMBL4513216
